- target system: T1, CRF2R
- T1 sequence (Q13324 whole entry, species assumed, looked up): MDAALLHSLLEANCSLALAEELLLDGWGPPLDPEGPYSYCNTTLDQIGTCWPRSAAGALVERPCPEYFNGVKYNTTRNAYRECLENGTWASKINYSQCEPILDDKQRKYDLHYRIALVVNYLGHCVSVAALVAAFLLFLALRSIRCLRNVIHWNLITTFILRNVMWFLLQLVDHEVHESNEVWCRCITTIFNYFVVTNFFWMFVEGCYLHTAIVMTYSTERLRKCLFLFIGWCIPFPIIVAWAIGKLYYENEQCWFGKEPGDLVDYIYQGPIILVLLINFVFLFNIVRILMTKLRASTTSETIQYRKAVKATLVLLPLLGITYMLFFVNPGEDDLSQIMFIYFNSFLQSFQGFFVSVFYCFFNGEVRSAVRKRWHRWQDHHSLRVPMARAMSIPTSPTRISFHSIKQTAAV
- protocol notes: cell-based or functional assay
CRF2R Emax % reference
A number alone suffices; assume %.

Would you please look over these solved cases?
>>> df
                                     binder  experimental_value
0  ZGPPISIDLPYQLLRKVIEIEKQEKEKQQAANNARLLARI (C-terminal amide) [SEQ ID NO 286]                92.5
1  ZGPPISIDLPWWLLRKMIEIEKQEKEKQQAANNRLLLDTI (C-terminal amide) [SEQ ID NO 216]                  90
2  ZGPPISIDLPYYLLRKMIEIEKQEKEKQQAANNALLLATI (C-terminal amide) [SEQ ID NO 225]                  89

For record ZGPPISIDLPIILLRKVIEIEKQEKEKQQAANNRLLLDTI (C-terminal amide) [SEQ ID NO 297] the listed CRF2R Emax % is 88.3

Taken from patent US20030148958A1.
